// provenance: paper doi:10.1101/2025.11.20.689572v1

# Assay target: HRH3 (Homo sapiens)
# Sequence (Q9Y5N1 whole entry): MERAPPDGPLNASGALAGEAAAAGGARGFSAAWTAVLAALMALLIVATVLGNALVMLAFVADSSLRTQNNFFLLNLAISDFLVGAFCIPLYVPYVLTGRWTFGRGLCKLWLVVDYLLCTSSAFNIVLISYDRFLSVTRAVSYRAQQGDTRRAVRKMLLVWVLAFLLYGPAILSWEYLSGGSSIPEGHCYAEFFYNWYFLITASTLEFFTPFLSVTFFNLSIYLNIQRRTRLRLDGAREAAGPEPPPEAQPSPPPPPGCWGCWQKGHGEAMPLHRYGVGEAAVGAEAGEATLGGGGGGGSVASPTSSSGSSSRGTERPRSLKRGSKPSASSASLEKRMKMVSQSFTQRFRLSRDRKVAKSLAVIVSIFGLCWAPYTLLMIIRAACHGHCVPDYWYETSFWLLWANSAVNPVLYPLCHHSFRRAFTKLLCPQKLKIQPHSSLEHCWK
# Experimental protocol: cell-based
# Set-up: species or system HEK293; TRUPATH BRET2 G-protein dissociation; antagonist mode against agonist EC80
# Study conditions: N-Desmethyl Xanomeline, Assay=Gi1; agonist mode
Value type: EC50 (µM)

1. CCCCCCOc1nsnc1C1=CCCNC1 [N-desmethylxanomeline]
10.9

###

# Assay target: HTR1A (Homo sapiens, UniProt P08908)
# Sequence (P08908 whole entry): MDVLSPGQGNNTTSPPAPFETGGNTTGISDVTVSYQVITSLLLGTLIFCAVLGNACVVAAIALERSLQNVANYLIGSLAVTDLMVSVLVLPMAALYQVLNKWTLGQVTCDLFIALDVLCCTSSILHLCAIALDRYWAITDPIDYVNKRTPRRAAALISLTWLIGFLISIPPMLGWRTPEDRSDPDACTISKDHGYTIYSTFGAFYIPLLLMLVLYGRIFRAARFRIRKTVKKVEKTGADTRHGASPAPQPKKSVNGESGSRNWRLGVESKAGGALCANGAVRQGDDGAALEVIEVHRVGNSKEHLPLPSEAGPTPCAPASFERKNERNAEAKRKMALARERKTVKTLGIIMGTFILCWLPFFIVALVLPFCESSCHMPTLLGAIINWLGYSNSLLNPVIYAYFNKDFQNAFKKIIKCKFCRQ
# Experimental protocol: cell-based
# Design: species or system HEK293; TRUPATH BRET2 G-protein dissociation; antagonist mode against agonist EC80
# Study conditions: N-Desmethyl Xanomeline, Assay=Gi2; agonist mode
Value type: EC50

1) CCCCCCOc1nsnc1C1=CCCNC1 [N-desmethylxanomeline]
4.33 µM
